conditions: 283.15 K; 101.33 kPa; Liquid; Cone and plate viscometry
± gives the expanded uncertainty stated by the source.
quantity_measured: viscosity

compound	observed_result
CCCCCCCCCC[P+](CC)(CC)CC.O=[N+]([O-])c1cn[n-]c1 [decyltriethylphosphonium 4-nitropyrazolide]	1030 ± 90 mPa·s

Asked: Bench note: what viscosity did CC[P+](CC)(CC)COCCOC.Cc1ncc([N+](=O)[O-])[n-]1 show?
Given back: 381 ± 29 mPa·s

Asked: Subsequent entry: CCCCCCCCCCCCCC[P+](CCCCCC)(CCCCCC)CCCCCC.Clc1nc[n-]c1Cl [trihexyl(tetradecyl)phosphonium 4,5-dichloroimidazolide]
Given back: 2580 ± 260 mPa·s

Asked: Subsequent entry: CCCCCCC[P+](CC)(CC)CC.O=[N+]([O-])c1cn[n-]c1 [triethylheptylphosphonium 4-nitropyrazolide]
Given back: 657 ± 54 mPa·s

Asked: Subsequent entry: CCCC[n+]1cccn1C.O=S(=O)([N-]S(=O)(=O)C(F)(F)F)C(F)(F)F [1-butyl-2-methylpyrazolium bis(trifluoromethylsulfonyl)imide]
Given back: 155 ± 11 mPa·s

Asked: Subsequent entry: CCCCCCCCSC(N(C)C)=[N+](C)C.O=S(=O)([N-]S(=O)(=O)C(F)(F)F)C(F)(F)F
Given back: 254 ± 19 mPa·s

Asked: Subsequent entry: CCCCCCn1cc[n+](C)c1C.O=[N+]([O-])c1cn[n-]c1 [1-hexyl-2,3-dimethylimidazolium 4-nitropyrazolide]
Given back: 6910 ± 800 mPa·s

Source listed as the NIST ThermoML archive (doi:10.1021/acs.jced.6b00269).
